Source of measurements: patent USRE48335E1

Positions of bridges follow the written chain, without caps; N, C: chain ends. Non-standard residues stand in square brackets, D forms with d. Residues, ends and D or L forms follow the SMILES beside them. *: point of attachment. Benzoyl(3-CF3) = O=C(c1cccc(C(F)(F)F)c1)*; Heptanoyl(6-Me) = CC(C)CCCCC(=O)*; X12 = O=C(c1ccc(C(F)(F)F)c(F)c1)*; X29 = Cc1cc(C)cc(C(=O)*)c1; dNle = CCCC[C@@H](N)C(=O)O; Octanoyl = CCCCCCCC(=O)*; Dab = NCC[C@H](N)C(=O)O; Abu = CC[C@H](N)C(=O)O; Dap = NC[C@H](N)C(=O)O
The reader will find Minimum inhibitory concentration, Ec FADDI-EC001 measurements below, all made with Enterobacter cloacae.
measured.endpoint: Minimum inhibitory concentration, Ec FADDI-EC001 (µg/mL)

| compound | reading.unit | comparative.sign | result |
| --- | --- | --- | --- |
| CCCC[C@H]1NC(=O)[C@H](CCN)NC(=O)[C@@H](NC(=O)[C@H](CN)NC(=O)[C@@H](NC(=O)[C@H](CCN)NC(=O)c2cccc(C(F)(F)F)c2)[C@@H](C)O)CCNC(=O)[C@H]([C@@H](C)O)NC(=O)[C@H](CCN)NC(=O)[C@H](CCN)NC(=O)[C@H](C)NC1=O [Compound 125] ({Benzoyl(3-CF3)}-[Dab]T[Dap][Dab][Dab][dNle]A[Dab][Dab]T; lactam 4-C) | µg/mL | = | 0.5 |
| CC[C@@H]1NC(=O)[C@@H](CC(C)C)NC(=O)[C@H](CCN)NC(=O)[C@@H](NC(=O)[C@H](CN)NC(=O)[C@@H](NC(=O)[C@H](CCN)NC(=O)c2cc(C)cc(C)c2)[C@@H](C)O)CCNC(=O)[C@H]([C@@H](C)O)NC(=O)[C@H](CCN)NC(=O)[C@H](CCN)NC1=O [Compound 93] (X29-[Dab]T[Dap][Dab][Dab][dL][Abu][Dab][Dab]T; lactam 4-C) | µg/mL | = | 0.25 |
| CCCCCCCC(=O)N[C@@H](CCN)C(=O)N[C@H](C(=O)N[C@@H](CCN)C(=O)N[C@H]1CCNC(=O)[C@H]([C@@H](C)O)NC(=O)[C@H](CCN)NC(=O)[C@H](CCN)NC(=O)[C@H]([C@@H](C)O)NC(=O)[C@@H](CCCC)NC(=O)[C@H](CCN)NC1=O)[C@@H](C)O [Compound 24] (Octanoyl-[Dab]T[Dab][Dab][Dab][dNle]T[Dab][Dab]T; lactam 4-C) | µg/mL | < | 0.125 |
| CC[C@@H]1NC(=O)[C@@H](CC(C)C)NC(=O)[C@H](CCN)NC(=O)[C@@H](NC(=O)[C@H](CN)NC(=O)[C@@H](NC(=O)[C@H](CCN)NC(=O)c2ccc(C(F)(F)F)c(F)c2)[C@@H](C)O)CCNC(=O)[C@H]([C@@H](C)O)NC(=O)[C@H](CCN)NC(=O)[C@H](CCN)NC1=O [Compound 111] (X12-[Dab]T[Dap][Dab][Dab][dL][Abu][Dab][Dab]T; lactam 4-C) | µg/mL | = | 0.5 |
| CC[C@@H]1NC(=O)[C@@H](CC(C)C)NC(=O)[C@H](CCN)NC(=O)[C@@H](NC(=O)[C@H](CN)NC(=O)[C@@H](NC(=O)[C@H](CCN)NC(=O)CCCCC(C)C)[C@@H](C)O)CCNC(=O)[C@H]([C@@H](C)O)NC(=O)[C@H](CCN)NC(=O)[C@H](CCN)NC1=O [Compound 66] ({Heptanoyl(6-Me)}-[Dab]T[Dap][Dab][Dab][dL][Abu][Dab][Dab]T; lactam 4-C) | µg/mL | = | 0.5 |

---

The reader will find Minimum inhibitory concentration, Ec FADDI-EC003 measurements below, all made with Enterobacter cloacae.
Starred links: 1 amine or outer side, 2 acyl side, 3 side chain; linkers in the order of their positions; H or OH if unused. Positions of bridges follow the written chain, without caps; N, C: chain ends. Non-standard residues stand in square brackets, D forms with d. Residues, ends and D or L forms follow the SMILES beside them. ξ: configuration not given here. *: point of attachment. X2 = CC(C)C[C@@H](CC(=O)[C@H](CCN)N[*:1])C(=O)[*:2]; Thr(3ξ) = CC(O)[C@H](N)C(=O)O; Octanoyl = CCCCCCCC(=O)*; X25 = Cc1cccc(C(=O)*)c1C; Dab = NCC[C@H](N)C(=O)O; Abu = CC[C@H](N)C(=O)O; Dap = NC[C@H](N)C(=O)O; X40 = O=C(c1ccccc1F)*
measured.endpoint: Minimum inhibitory concentration, Ec FADDI-EC003

| molecule | target.desc | result |
| --- | --- | --- |
| CC[C@@H]1NC(=O)[C@@H](CC(C)C)NC(=O)[C@H](CCN)NC(=O)[C@@H](NC(=O)[C@H](CN)NC(=O)[C@@H](NC(=O)[C@H](CCN)NC(=O)c2ccccc2F)[C@@H](C)O)CCNC(=O)[C@H]([C@@H](C)O)NC(=O)[C@H](CCN)NC(=O)[C@H](CCN)NC1=O [Compound 73] (X40-[Dab]T[Dap][Dab][Dab][dL][Abu][Dab][Dab]T; lactam 4-C) | Enterobacter cloacae | 0.25 µg/mL |
| CC[C@@H]1NC(=O)[C@@H](CC(C)C)NC(=O)[C@H](CCN)NC(=O)[C@@H](NC(=O)[C@H](CN)NC(=O)[C@@H](NC(=O)[C@H](CCN)NC(=O)c2cccc(C)c2C)[C@@H](C)O)CCNC(=O)[C@H]([C@@H](C)O)NC(=O)[C@H](CCN)NC(=O)[C@H](CCN)NC1=O [Compound 91] (X25-[Dab]T[Dap][Dab][Dab][dL][Abu][Dab][Dab]T; lactam 4-C) | Enterobacter cloacae | <0.125 µg/mL |
| CCCCCCCC(=O)N[C@@H](CCN)C(=O)N[C@H](C(=O)N[C@H](CO)C(=O)N[C@H]1CCNC(=O)[C@H](C(C)O)NC(=O)[C@H](CCN)NC(=O)[C@H](CCN)NC(=O)[C@H](C(C)O)NC(=O)[C@@H](CC(C)C)CC(=O)[C@H](CCN)NC1=O)C(C)O (stereo partly drawn) [Compound 1] (Octanoyl-[Dab][Thr(3ξ)][dS][Dab][X2][Thr(3ξ)][Dab][Dab][Thr(3ξ)]; lactam 4-C) | Enterobacter cloacae | <0.125 µg/mL |

---

The reader will find Minimum inhibitory concentration, Ec FADDI-EC003 measurements below, all made with Enterobacter cloacae.
Positions of bridges follow the written chain, without caps; N, C: chain ends. Non-standard residues stand in square brackets, D forms with d. Residues, ends and D or L forms follow the SMILES beside them. *: point of attachment. X22 = CC(C)c1ccc(C(=O)*)cc1; X32 = Cc1ccc(C(=O)*)c(Cl)c1; Dab = NCC[C@H](N)C(=O)O; Abu = CC[C@H](N)C(=O)O; Dap = NC[C@H](N)C(=O)O
measured.endpoint: Minimum inhibitory concentration, Ec FADDI-EC003 (µg/mL)

| compound | comparative.sign | result |
| --- | --- | --- |
| CC[C@@H]1NC(=O)[C@@H](CC(C)C)NC(=O)[C@H](CCN)NC(=O)[C@@H](NC(=O)[C@H](CN)NC(=O)[C@@H](NC(=O)[C@H](CCN)NC(=O)c2ccc(C(C)C)cc2)[C@@H](C)O)CCNC(=O)[C@H]([C@@H](C)O)NC(=O)[C@H](CCN)NC(=O)[C@H](CCN)NC1=O [Compound 99] (X22-[Dab]T[Dap][Dab][Dab][dL][Abu][Dab][Dab]T; lactam 4-C) | = | 0.25 |
| CC[C@@H]1NC(=O)[C@@H](CC(C)C)NC(=O)[C@H](CCN)NC(=O)[C@@H](NC(=O)[C@H](CN)NC(=O)[C@@H](NC(=O)[C@H](CCN)NC(=O)c2ccc(C)cc2Cl)[C@@H](C)O)CCNC(=O)[C@H]([C@@H](C)O)NC(=O)[C@H](CCN)NC(=O)[C@H](CCN)NC1=O [Compound 101] (X32-[Dab]T[Dap][Dab][Dab][dL][Abu][Dab][Dab]T; lactam 4-C) | < | 0.125 |

---

# Test system: Acinetobacter baumannii
Positions of bridges follow the written chain, without caps; N, C: chain ends. Non-standard residues stand in square brackets, D forms with d. Residues, ends and D or L forms follow the SMILES beside them. *: point of attachment. Benzoyl(3-CF3) = O=C(c1cccc(C(F)(F)F)c1)*; Benzoyl(4-Me) = Cc1ccc(C(=O)*)cc1; X10 = O=C(c1cc(F)cc(Cl)c1)*; X32 = Cc1ccc(C(=O)*)c(Cl)c1; Heptanoyl = CCCCCCC(=O)*; Octanoyl = CCCCCCCC(=O)*; Dab = NCC[C@H](N)C(=O)O; Abu = CC[C@H](N)C(=O)O; Dap = NC[C@H](N)C(=O)O; Hexanoyl = CCCCCC(=O)*; X40 = O=C(c1ccccc1F)*; Aib = CC(C)(N)C(=O)O
The label depends only on Minimum inhibitory concentration, Ab A ATCC 17978: True if it is at least 1 µg/mL, False if it is smaller.

| molecule | group.label |
| --- | --- |
| CC[C@@H]1NC(=O)[C@@H](CC(C)C)NC(=O)[C@H](CCN)NC(=O)[C@@H](NC(=O)[C@H](CN)NC(=O)[C@@H](NC(=O)[C@H](CCN)NC(=O)c2ccc(C)cc2)[C@@H](C)O)CCNC(=O)[C@H]([C@@H](C)O)NC(=O)[C@H](CCN)NC(=O)[C@H](CCN)NC1=O [Compound 98] ({Benzoyl(4-Me)}-[Dab]T[Dap][Dab][Dab][dL][Abu][Dab][Dab]T; lactam 4-C) | True |
| CCCCCCC(=O)N[C@@H](CCN)C(=O)N[C@H](C(=O)N[C@@H](CCN)C(=O)N[C@H]1CCNC(=O)[C@H]([C@@H](C)O)NC(=O)[C@H](CCN)NC(=O)[C@H](CCN)NC(=O)[C@H]([C@@H](C)O)NC(=O)[C@@H](CC(C)C)NC(=O)[C@H](CCN)NC1=O)[C@@H](C)O [Compound 42] (Heptanoyl-[Dab]T[Dab][Dab][Dab][dL]T[Dab][Dab]T; lactam 4-C) | True |
| CCCCCCCC(=O)N[C@@H](CCN)C(=O)N[C@H](C(=O)N[C@H](CO)C(=O)N[C@H]1CCNC(=O)[C@H]([C@@H](C)O)NC(=O)[C@H](CCN)NC(=O)[C@H](CCN)NC(=O)[C@H]([C@@H](C)O)NC(=O)[C@@H](Cc2ccccc2)NC(=O)[C@H](CCN)NC1=O)[C@@H](C)O [Compound 3] (Octanoyl-[Dab]T[dS][Dab][Dab][dF]T[Dab][Dab]T; lactam 4-C) | False |
| CC[C@@H]1NC(=O)[C@@H](CC(C)C)NC(=O)[C@H](CCN)NC(=O)[C@@H](NC(=O)[C@H](CN)NC(=O)[C@@H](NC(=O)[C@H](CCN)NC(=O)c2cc(F)cc(Cl)c2)[C@@H](C)O)CCNC(=O)[C@H]([C@@H](C)O)NC(=O)[C@H](CCN)NC(=O)[C@H](CCN)NC1=O [Compound 116] (X10-[Dab]T[Dap][Dab][Dab][dL][Abu][Dab][Dab]T; lactam 4-C) | False |
| CC[C@@H]1NC(=O)[C@@H](CC(C)C)NC(=O)[C@H](CCN)NC(=O)[C@@H](NC(=O)[C@H](CN)NC(=O)[C@@H](NC(=O)[C@H](CCN)NC(=O)c2ccccc2F)[C@@H](C)O)CCNC(=O)[C@H]([C@@H](C)O)NC(=O)[C@H](CCN)NC(=O)[C@H](CCN)NC1=O [Compound 73] (X40-[Dab]T[Dap][Dab][Dab][dL][Abu][Dab][Dab]T; lactam 4-C) | True |
| CCCCCCC(=O)N[C@@H](CCN)C(=O)N[C@H](C(=O)N[C@H](CO)C(=O)N[C@H]1CCNC(=O)[C@H]([C@@H](C)O)NC(=O)[C@H](CCN)NC(=O)[C@H](CCN)NC(=O)[C@H]([C@@H](C)O)NC(=O)[C@@H](CC(C)C)NC(=O)[C@H](CCN)NC1=O)[C@@H](C)O [Compound 16] (Heptanoyl-[Dab]T[dS][Dab][Dab][dL]T[Dab][Dab]T; lactam 4-C) | False |
| CC[C@@H]1NC(=O)[C@@H](CC(C)C)NC(=O)[C@H](CCN)NC(=O)[C@@H](NC(=O)[C@H](CN)NC(=O)[C@@H](NC(=O)[C@H](CCN)NC(=O)c2ccc(C)cc2Cl)[C@@H](C)O)CCNC(=O)[C@H]([C@@H](C)O)NC(=O)[C@H](CCN)NC(=O)[C@H](CCN)NC1=O [Compound 101] (X32-[Dab]T[Dap][Dab][Dab][dL][Abu][Dab][Dab]T; lactam 4-C) | False |
| CCCCCC(=O)N[C@@H](CCN)C(=O)N[C@H](C(=O)N[C@@H](CCN)C(=O)N[C@H]1CCNC(=O)[C@H]([C@@H](C)O)NC(=O)[C@H](CCN)NC(=O)[C@H](CCN)NC(=O)[C@H]([C@@H](C)O)NC(=O)[C@@H](CC(C)C)NC(=O)[C@H](CCN)NC1=O)[C@@H](C)O [Compound 26] (Hexanoyl-[Dab]T[Dab][Dab][Dab][dL]T[Dab][Dab]T; lactam 4-C) | True |
| CC(C)C[C@H]1NC(=O)[C@H](CCN)NC(=O)[C@@H](NC(=O)[C@@H](CO)NC(=O)[C@@H](NC(=O)[C@H](CCN)NC(=O)c2cccc(C(F)(F)F)c2)[C@@H](C)O)CCNC(=O)[C@H]([C@@H](C)O)NC(=O)[C@H](CCN)NC(=O)[C@H](CCN)NC(=O)[C@H]([C@@H](C)O)NC1=O [Compound 19] ({Benzoyl(3-CF3)}-[Dab]T[dS][Dab][Dab][dL]T[Dab][Dab]T; lactam 4-C) | False |
| CCCCCCCC(=O)N[C@@H](CCN)C(=O)N[C@H](C(=O)N[C@@H](CN)C(=O)N[C@H]1CCNC(=O)[C@H]([C@@H](C)O)NC(=O)[C@H](CCN)NC(=O)[C@H](CCN)NC(=O)C(C)(C)NC(=O)[C@@H](CC(C)C)NC(=O)[C@H](CCN)NC1=O)[C@@H](C)O [Compound 45] (Octanoyl-[Dab]T[Dap][Dab][Dab][dL][Aib][Dab][Dab]T; lactam 4-C) | True |
